From: patent US20250295799A1

tgt: T1, human glypican-3 (GPC3) (human, UniProt P51654 25-554)
T1 construct: Endogenous on JHH-7, JHH-5, HepG2 and NCI-H446 tumour cells, or transiently expressed on CHO-S cells from a pTT5 plasmid; also called hGPC3; huGPC3
experimental protocol: flow cytometry on JHH-5 cells; antibody in mouse plasma, day 0
pKd: −log10 of the molar value.
Catalogue of pKd readings, one per entry.
measurement kind: pKd

>>> numeric_value("H18L6_LC_G34A mAb, v40212 (antibody, human IgG1, kappa, V domains shown, M3-H18L6 chains with the stated light chain point mutation, IgG1/kappa) VH: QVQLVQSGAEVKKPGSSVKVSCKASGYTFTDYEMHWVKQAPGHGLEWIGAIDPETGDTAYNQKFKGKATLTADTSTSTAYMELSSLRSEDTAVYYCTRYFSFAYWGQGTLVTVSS VL: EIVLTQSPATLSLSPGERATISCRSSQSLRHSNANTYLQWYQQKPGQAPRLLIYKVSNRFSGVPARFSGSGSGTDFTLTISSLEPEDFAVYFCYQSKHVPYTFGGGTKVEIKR")
9.82
>>> numeric_value("H18L6_LC_G34R mAb, v40206 (antibody, human IgG1, kappa, V domains shown, Full-size IgG1/kappa) VH: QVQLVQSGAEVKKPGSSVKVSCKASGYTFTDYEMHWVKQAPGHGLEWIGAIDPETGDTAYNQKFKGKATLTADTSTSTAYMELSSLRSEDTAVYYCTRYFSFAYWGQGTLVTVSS VL: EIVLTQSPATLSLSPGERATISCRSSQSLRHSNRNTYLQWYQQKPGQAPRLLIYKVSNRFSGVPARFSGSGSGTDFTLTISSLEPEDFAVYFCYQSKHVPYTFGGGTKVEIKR")
10.15
